pEC50 reference
Biological target: P2Y6 receptor (Homo sapiens)
Assay: Activation of P2Y6 receptor: receptor-induced Ca2+ changes measured with fluo-4
Settings: sodium salts of the test compounds; 1321N1 human astrocytoma cells expressing P2Y6; fluo-4 Ca2+ fluorescence; nonlinear curve fit; read-out: EC50 of synthetic compounds for activation of P2Y6 receptor
Procedure: Synthetic compounds were tested for activation of P2Y6 receptor by measuring receptor induced Ca^2+ changes with the fluorescent Ca^2+ indicator fluo-4. 1321N1 human astrocytoma cell lines either expressing P2Y2, P2Y4 or P2Y6. Receptors were plated into 24-well plates. Two days after plating, fluorometric measurements were made and responses of cells to a serial dilution of the sodium salts of the test compounds were determined. […]
pEC50: −log10 of the molar value.

Worked set:
>  <compound>
O=c1ccn([C@@H]2O[C@H](COP(=O)(O)OP(=O)(O)O)C(O)C2O)c(=O)n1Cc1cc(N2CCCCC2)ccn1 (stereo partly shown)

>  <pEC50>
< 5.70

$$$$
>  <compound>
O=c1ccn([C@@H]2O[C@H](COP(=O)(O)OP(=O)(O)O)C(O)C2O)c(=O)n1Cc1cc(-c2ccccn2)ccn1 (stereo partly shown)

>  <pEC50>
6.00 to 6.30

$$$$
>  <compound>
O=c1ccn([C@@H]2O[C@H](COP(=O)(O)OP(=O)(O)O)C(O)C2O)c(=O)n1Cc1cc(-c2ccncc2)ccn1 (stereo partly shown)

>  <pEC50>
5.70 to 6.00

$$$$
>  <compound>
O=c1ccn([C@@H]2O[C@H](COP(=O)(O)OP(=O)(O)O)C(O)C2O)c(=O)n1Cc1ccc(-c2ccccc2)cn1 (stereo partly shown)

>  <pEC50>
> 6.30

$$$$
>  <compound>
O=c1ccn([C@@H]2O[C@H](COP(=O)(O)OP(=O)(O)O)C(O)C2O)c(=O)n1Cc1cc(Nc2ccccc2)ccn1 (stereo partly shown)

>  <pEC50>
6.00 to 6.30

$$$$
>  <compound>
O=c1ccn([C@@H]2O[C@H](COP(=O)(O)OP(=O)(O)O)C(O)C2O)c(=O)n1Cc1cnc(-c2ccccc2)s1 (stereo partly shown)

>  <pEC50>
5.70 to 6.00

$$$$

Now examine the next entry.
*Q* pEC50 of O=c1ccn([C@@H]2O[C@H](COP(=O)(O)OP(=O)(O)O)C(O)C2O)c(=O)n1Cc1ncc(-c2ccccc2)s1 (stereo partly shown) on P2Y6 receptor (Homo sapiens)?
*A* > 6.30

---

Entries and their EC50 values follow.
target: P2Y6 receptor (Homo sapiens, UniProt Q15077); test: Activation of P2Y6 receptor: receptor-induced Ca2+ changes measured with fluo-4; details: sodium salts of the test compounds; 1321N1 human astrocytoma cells expressing P2Y6; fluo-4 Ca2+ fluorescence; nonlinear curve fit; read-out: EC50 of synthetic compounds for activation of P2Y6 receptor
Sequence (Q15077 whole entry): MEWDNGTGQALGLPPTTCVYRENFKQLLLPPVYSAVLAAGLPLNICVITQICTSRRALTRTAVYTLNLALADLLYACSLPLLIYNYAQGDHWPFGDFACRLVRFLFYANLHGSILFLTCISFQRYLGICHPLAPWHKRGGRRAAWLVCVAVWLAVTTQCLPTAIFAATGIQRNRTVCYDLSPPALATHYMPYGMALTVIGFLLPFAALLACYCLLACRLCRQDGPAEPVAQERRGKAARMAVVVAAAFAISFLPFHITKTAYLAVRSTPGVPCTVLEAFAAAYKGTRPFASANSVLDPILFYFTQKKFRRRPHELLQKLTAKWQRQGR

Worked cases, answers included:
>  <compound>
O=c1ccn([C@@H]2O[C@H](COP(=O)(O)OP(=O)(O)O)C(O)C2O)c(=O)n1Cc1cccc(-c2ccccc2)c1 (some centres unmarked)

>  <experimental value>
< 500 nM

$$$$
>  <compound>
O=c1ccn([C@@H]2O[C@H](COP(=O)(O)OP(=O)(O)O)C(O)C2O)c(=O)n1Cc1cccc(-c2ccccc2)n1 (some centres unmarked)

>  <experimental value>
1000 to 2000 nM

$$$$
>  <compound>
O=c1ccn([C@@H]2O[C@H](COP(=O)(O)OP(=O)(O)O)C(O)C2O)c(=O)n1Cc1cc(C2CCCCC2)ccn1 (some centres unmarked)

>  <experimental value>
500 to 1000 nM

$$$$
>  <compound>
O=c1ccn([C@@H]2O[C@H](COP(=O)(O)OP(=O)(O)O)C(O)C2O)c(=O)n1Cc1ccc(-c2ccccc2)s1 (some centres unmarked)

>  <experimental value>
< 500 nM

$$$$

Next item in the queue.
*Q* For the compound O=c1ccn([C@@H]2O[C@H](COP(=O)(O)OP(=O)(O)O)C(O)C2O)c(=O)n1Cc1ccc(-c2ccccc2)o1 (some centres unmarked) , what EC50 is on record?
*A* < 500 nM

---

target: UniProt Q15077; test: Activation of P2Y6 receptor: receptor-induced Ca2+ changes measured with fluo-4; settings: sodium salts of the test compounds; 1321N1 human astrocytoma cells expressing P2Y6; fluo-4 Ca2+ fluorescence; nonlinear curve fit; read-out: EC50 of synthetic compounds for activation of P2Y6 receptor
pEC50: −log10 of the molar value.
outcome measure: pEC50

>  <compound>
O=c1ccn([C@@H]2O[C@H](COP(=O)(O)OP(=O)(O)O)C(O)C2O)c(=O)n1Cc1cc(C2CCCC2)ccn1 (stereo partly drawn)

>  <experimental value>
6.00 to 6.30

$$$$
>  <compound>
O=c1ccn([C@@H]2O[C@H](COP(=O)(O)OP(=O)(O)O)C(O)C2O)c(=O)n1Cc1cc(Cc2ccccc2)ccn1 (stereo partly drawn)

>  <experimental value>
> 6.30

$$$$
>  <compound>
O=c1ccn([C@@H]2O[C@H](COP(=O)(O)OP(=O)(O)O)C(O)C2O)c(=O)n1Cc1ncc(-c2ccccc2)o1 (stereo partly drawn)

>  <experimental value>
> 6.30

$$$$
>  <compound>
O=c1ccn([C@@H]2O[C@H](COP(=O)(O)OP(=O)(O)O)C(O)C2O)c(=O)n1Cc1cc(Oc2ccccc2)ccn1 (stereo partly drawn)

>  <experimental value>
> 6.30

$$$$
>  <compound>
O=c1ccn([C@@H]2O[C@H](COP(=O)(O)OP(=O)(O)O)C(O)C2O)c(=O)n1Cc1cnc(-c2ccccc2)o1 (stereo partly drawn)

>  <experimental value>
6.00 to 6.30

$$$$

*Q* Fill blank: measured pEC50 of the compound O=c1ccn([C@@H]2O[C@H](COP(=O)(O)OP(=O)(O)O)C(O)C2O)c(=O)n1Cc1ncccc1-c1ccccc1 (stereo partly drawn) is ____.
*A* < 5.70
